The reported measurements were obtained from patent EP0458363B1.

- System: HSV-1 (herpes simplex virus type 1, strain Schooler)
- TEST_DETAILS: HSV-1 antiviral plaque reduction assay in cell culture
- Format: cell-based
- CONDITION_DESCRIPTION: WI-38 cell culture monolayers; at least 50% plaque reduction; 4 days incubation at 37°C; read-out: ID₅₀(µM) for the following viruses HSV-1

| COMPOUND | IC50 |
| --- | --- |
| Nc1nc2c(ncn2[C@@H]2[C@@H](F)[C@H](CO)[C@H]2CO)c(=O)[nH]1 [Compound II] | 0.7 to 1.8 µM |

###

- Tested on: HCMV (human cytomegalovirus, strain AD 169)
- TEST_DETAILS: HCMV antiviral plaque reduction assay in cell culture
- Type: cell-based
- CONDITION_DESCRIPTION: WI-38 cell culture monolayers; at least 50% plaque reduction; 6-7 days incubation at 37°C; read-out: ID₅₀(µM) for the following viruses HCMV

| SMILES_ENTRY | IC50 |
| --- | --- |
| Nc1nc2c(ncn2[C@@H]2[C@@H](F)[C@H](CO)[C@H]2CO)c(=O)[nH]1 | 18 to 35 µM |
